- measured_on: T1, His-tagged P3028 (human, not fully specified)
- T1 construct: the tag is put first after 'PGE73=His-tag-P3028'; also called PGE73; not shown: His-tag
- T1 peptide: {His‑tag}-VFDEFKPLVEEPQNLIK
- test_name: chip ELISA
No end group written: not given here.

binder | ELISA signal
DKLDTFFVKLSLFTER [P28R K1D] | 373
KKLDTFTVKLSLFTER [P28R F7T] | 517
KKLDTTFVKLSLFTER [P28R F6T] | 481
KKLDVFFVKLSLFTER [P28R T5V] | 374
KKLHTFFVKLSLFTER [P28R D4H] | 317
KRLDTFFVKLSLFTER [P28R K2R] | 417
EKLDTFFVKLSLFTER [P28R K1E] | 396
KKLDTFWVKLSLFTER [P28R F7W] | 380
KKLDTKFVKLSLFTER [P28R F6K] | 309
KKLMTFFVKLSLFTER [P28R D4M] | 384
KKLDTFFVKLSLFTHR [P28R E15H] | 318
KKLDYFFVKLSLFTER [P28R T5Y] | 425
KLLDTFFVKLSLFTER [P28R K2L] | 343
KKLDTFFVKNSLFTER [P28R L10N] | 365
KKLDWFFVKLSLFTER [P28R T5W] | 418
KELDTFFVKLSLFTER [P28R K2E] | 349
KKLDTFFVKLKLFTER [P28R S11K] | 323
KKLDTMFVKLSLFTER [P28R F6M] | 467
KKLDTFFVKLSLFTEQ [P28R R16Q] | 133
KKDDTFFVKLSLFTER [P28R L3D] | 492
KKLDTFFVKLSLFTEA [P28R R16A] | 226
KKLDTFFVKQSLFTER [P28R L10Q] | 470
KKLDTFFVKLSLNTER [P28R F13N] | 862
KKTDTFFVKLSLFTER [P28R L3T] | 451
KKLDTFFVKESLFTER [P28R L10E] | 81
KKLDTFFIKLSLFTER [P28R V8I] | 401
KKLDTFFVKLSLSTER [P28R F13S] | 635
KKLDTFFVKLSLFDER [P28R T14D] | 159
KKLTTFFVKLSLFTER [P28R D4T] | 405
KKLDTFFLKLSLFTER [P28R V8L] | 411

src = patent US20170298096A1
